- tested-system: T1, cyno MUC1-C on stably transfected CHOK1 cells (cyno)
- T1 construct: domain: MUC1-C; also called CHOK1-cyno-MUC1-C cells; Monkey MUC1-CT
- protocol-text: FACS, CHOK1-cyno-MUC1-C
quantity-kind: Emax

[[record]]
binder = "ChiF4-1 (antibody, human IgG1, kappa, V domains shown, murine variable regions on human IgG1 constant regions; also called chimeric antibody of F4-1) VH: QIQLQQSGPELVKPGASVKISCKASGYTFTDNYINWVKQRPGQGLEYIGWIYPGSGNNKFNEKFKGKATLTVDTSSRTAFMQLSSLTFEDSAVYFCARDYPFPSYHYGMDYWGQGTSVTVSS VL: QILLTQSPAIMSASPGERVTITCSASSSVSYIHWFQQKPGTSPKLWIYSTSNLASGVPPRFSGSGSGTSFSLTVSRMEAEDAATYYCQQRSSYPPTFGGGTKLEIKR"
value = 41700

[[record]]
binder = "ChiM4 (antibody, human IgG1, kappa, V domains shown, murine variable regions on human IgG1 constant regions; also called chimeric antibody of M4) VH: QVQLQQSGAELARPGASVKLSCKASGYSFTTYGVPWVKQRTGQGLEWIGDIYPRSGNTYYNEKFKGKATLTADKSSDTVFMELRSLSSEDSAVYFCAREDYDNYPYALDYWGQGTSVTVSS VL: EIVLTQSPAIIAASPGEKVTITCSASSSVFNMNWYQQKPGSSPKIWIYDISKLASGVPGRFSGSGSGTSFSLTINSMEAEDVGTYYCQQRSFYPPTFGGGTKVEIKR"
value = 79500

[[record]]
binder = "ChiF4-18 (antibody, human IgG1, kappa, V domains shown, murine variable regions on human IgG1 constant regions; also called chimeric antibody of F4-18) VH: EVQLQQSGAELVRPGSSVKMSCKTSGYTFTSYGINWVKQRPGQGLEWIGYIYLGSDYTEYNEKFKGKATLTSDTTSSTAYMQLSSLTSEDSAIYFCARSAGSLFAYWGQGTLVTVSA VL: DIQLTQSPSSLSASLGERVSLTCRASQDIGITLNWLQQEPDGTIKRLIYATSSLDSGVPKRFSGSRSGSDYSLTISSLESEDFVDYYCLQYASSPYTFGGGTKLEIKR"
value = 79800

[[record]]
binder = "ChiM6 (antibody, human IgG1, kappa, V domains shown, murine variable regions on human IgG1 constant regions; also called chimeric antibody of M6) VH: QVQLQQSGAELMKPGASVKLSCKATGYRFIPYWIEWIKERPGHGLEWIGEILPGTGRTNYNEKFKGKATFTADTSSNTAYMQLSSLTTEDSAIYYCARYGDDTSGGYYAVDYWGQGTSVTVSS VL: DIVMTQSSASLAMSLGQRATISCRASESVNILGTNLIHWYQQKPGQPPKLLIYHASNLETGVPARFSGSGSRTDFTLTIDPVEEDDVAIYYCLQSRKIPWTFGGGTKLEIKR"
value = 70900

